molecular target: GluK2 kainate receptor (Rattus norvegicus, UniProt P42260, I567V/Y571C); construct: gene Grik2; full-length rat GluK2 (GenBank CAA77778.1), V567, C571, Q621 (Q/R site unedited); LBD-TMD modelled (S429-R874); homotetramer; experiment: cryo-EM structure ([…] Å, with BPAM344); IC50 from whole-cell patch clamp in HEK293 cells; assay type: cell-based
Sequence (P42260 32-908 I567V/Y571C): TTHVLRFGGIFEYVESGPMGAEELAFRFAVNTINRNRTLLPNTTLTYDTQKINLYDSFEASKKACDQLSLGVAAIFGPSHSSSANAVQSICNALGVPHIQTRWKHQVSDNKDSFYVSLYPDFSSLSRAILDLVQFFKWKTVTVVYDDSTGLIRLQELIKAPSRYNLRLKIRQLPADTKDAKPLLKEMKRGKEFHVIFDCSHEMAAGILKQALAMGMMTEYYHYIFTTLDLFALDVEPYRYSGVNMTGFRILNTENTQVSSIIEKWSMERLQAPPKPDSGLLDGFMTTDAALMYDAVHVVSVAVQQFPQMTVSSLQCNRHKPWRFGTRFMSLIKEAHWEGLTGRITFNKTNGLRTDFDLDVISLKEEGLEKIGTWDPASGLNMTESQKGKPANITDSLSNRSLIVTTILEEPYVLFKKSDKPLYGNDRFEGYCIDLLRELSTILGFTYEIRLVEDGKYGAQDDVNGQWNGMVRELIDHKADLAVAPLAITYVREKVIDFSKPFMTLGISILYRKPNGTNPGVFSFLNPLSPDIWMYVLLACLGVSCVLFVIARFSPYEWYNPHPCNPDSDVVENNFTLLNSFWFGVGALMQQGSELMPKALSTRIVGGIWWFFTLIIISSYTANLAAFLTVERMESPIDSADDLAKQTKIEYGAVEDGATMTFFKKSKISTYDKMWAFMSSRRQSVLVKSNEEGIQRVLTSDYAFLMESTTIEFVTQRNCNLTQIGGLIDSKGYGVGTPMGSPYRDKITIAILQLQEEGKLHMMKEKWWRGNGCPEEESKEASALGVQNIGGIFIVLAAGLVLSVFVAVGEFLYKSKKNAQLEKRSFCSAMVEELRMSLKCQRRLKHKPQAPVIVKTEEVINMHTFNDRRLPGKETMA
measured-metric: IC50 (nM)
Quick reminder: number only, in nM, skip the unit.

INPUT: Which IC50 reading was recorded for the compound NCCCNCCCCNCCC(=O)NCCCCCNC(=O)[C@@H](CC(N)=O)NC(=O)Cc1c[nH]c2ccccc12 ?
OUTPUT: 510
